Experiment: Cytotoxicity against human MT4 cells after 5 days by MTT assay
Format: cell-based
Recorded CC50 at 120 h for the following molecules
Report the value in µM with no unit label.

                                        smi  number
0  COc1cc2c(cc1Cc1cccc(Cl)c1F)c(=O)c(C(=O)O)cn2[C@H](CO)C(C)(C)C     3.4
1  O=C(O)c1cn(CCO)c2ccc(Cc3cccc(Cl)c3Cl)c(F)c2c1=O    14.3
2  CC(C)[C@@H](CO)n1cc(C(=O)O)c(=O)c2cc(Cc3cccc(Cl)c3F)ccc21      14
3  C[C@@H](CO)n1cc(C(=O)O)c(=O)c2cc(Cc3cccc(Cl)c3F)ccc21    13.7

Item: `COc1cc2c(cc1Cc1cccc(Cl)c1F)c(=O)c(C(=O)O)cn2[C@H](CO)C(C)C` | CC50 at 120 h: 4

Item: `N#Cc1cc2c(cc1Cc1cccc(Cl)c1Cl)c(=O)c(C(=O)O)cn2CCO` | CC50 at 120 h: 13.9

Item: `NCCn1cc(C(=O)O)c(=O)c2cc(Cc3cccc(Cl)c3Cl)ccc21` | CC50 at 120 h: 5.3

Item: `O=C(O)c1c[nH]c2ccc(Cc3ccccc3C(F)(F)F)cc2c1=O` | CC50 at 120 h: 14.8

Item: `O=C(O)c1cn(CCO)c2cc(F)c(Cc3cccc(Cl)c3Cl)cc2c1=O` | CC50 at 120 h: 9.8

* * *

Experiment: Selectivity index, ratio of CC50 for human MT4 cells to EC50 for HIV1 3B
Type: toxicity, cell-based
Value kind: selectivity ratio

Item: `COc1cc2c(cc1Cc1cccc(Cl)c1F)c(=O)c(C(=O)O)cn2[C@H](CO)C(C)(C)C` | selectivity ratio: > 4000

* * *

Recorded pIC50 for the following compounds
Molecular target: Human immunodeficiency virus type 1 integrase (Human immunodeficiency virus 1)
Sequence (Q7ZJM1 whole entry): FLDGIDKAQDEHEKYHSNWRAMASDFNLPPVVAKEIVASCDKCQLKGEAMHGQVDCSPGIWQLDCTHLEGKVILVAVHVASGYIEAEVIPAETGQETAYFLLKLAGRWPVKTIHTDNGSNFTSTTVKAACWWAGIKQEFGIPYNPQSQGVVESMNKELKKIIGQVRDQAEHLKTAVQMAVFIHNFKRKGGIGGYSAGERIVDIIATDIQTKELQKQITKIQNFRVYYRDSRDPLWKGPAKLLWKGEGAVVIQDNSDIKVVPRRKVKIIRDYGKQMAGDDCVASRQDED
Test: Inhibition of HIV1 integrase strand transfer activity
Expect pIC50 as a plain number equal to -log10 of the molar concentration.

Would you please look over these solved cases?
                                        smi  number
0  CCC[C@@H](CO)n1cc(C(=O)O)c(=O)c2cc(Cc3cccc(Cl)c3F)ccc21    8.09
1  O=C(O)c1cn(CCO)c2cc(F)c(Cc3cccc(Cl)c3Cl)cc2c1=O    7.60
2  O=C(O)c1c[nH]c2ccc(Cc3cccc(Cl)c3Cl)cc2c1=O    7.15
3  O=C(O)c1cn(CCO)c2c(F)cc(Cc3cccc(Cl)c3Cl)cc2c1=O    7.47
4  NC(=O)CCn1cc(C(=O)O)c(=O)c2cc(Cc3cccc(Cl)c3Cl)ccc21    6.94

Item: `O=C(O)c1c[nH]c2ccc(Cc3cc(Cl)ccc3Cl)cc2c1=O` | pIC50: 6.60

Item: `O=C(O)c1cn(CCO)c2cc(C(F)(F)F)c(Cc3cccc(Cl)c3Cl)cc2c1=O` | pIC50: 6.17

Item: `CCn1cc(C(=O)O)c(=O)c2cc(Cc3cccc(Cl)c3Cl)ccc21` | pIC50: 7.51

Item: `COc1cc2c(cc1Cc1cccc(Cl)c1F)c(=O)c(C(=O)O)cn2[C@H](CO)C1CCCCC1` | pIC50: 8.17

Item: `CCCn1cc(C(=O)O)c(=O)c2cc(Cc3cccc(Cl)c3Cl)ccc21` | pIC50: 7.26
